Recorded values, source ChEMBL document CHEMBL5724914.

experiment: The drug is tested on WLS-006 corresponding to human gut metagenome with ENA study accession number: PRJEB37062 and ENA sample accession number: ERS12561741 for biotransformation under anaerobic condition. The drug concentrations were measured over 9 timepoints collected between 0 and 24 hours of incubation by liquid-chromatography-coupled mass spectrometry (LC–MS); conditions: 2 µM; further: call rule not given here
propertyName: Bacterial Biotransformation

Some molecules with recorded Bacterial Biotransformation:
Which Bacterial Biotransformation value belongs to CC(C)(C)NC[C@H](O)COc1nsnc1N1CCOCC1.O=C(O)/C=C\C(=O)O [TIMOLOL MALEATE] ?
Compound NOT metabolized

Which Bacterial Biotransformation value belongs to CCCC(C)(COC(N)=O)COC(=O)NC(C)C (centres undefined) ?
Compound metabolized

Which Bacterial Biotransformation value belongs to N#Cc1ccc2c(c1)N(CCCN1CCC(O)CC1)c1ccccc1S2 ?
Compound NOT metabolized

Which Bacterial Biotransformation value belongs to Clc1cccc(Cl)c1N=C1NCCN1 ?
Compound metabolized

Which Bacterial Biotransformation value belongs to COC(=O)[C@H](c1ccccc1Cl)N1CCc2sccc2C1.O=S(=O)(O)O [CLOPIDOGREL BISULFATE] ?
Compound metabolized

Which Bacterial Biotransformation value belongs to O=C(O)CCC(=O)O.O=C(O[C@H]1CN2CCC1CC2)N1CCc2ccccc2[C@@H]1c1ccccc1 [SOLIFENACIN SUCCINATE] ?
Compound metabolized

Which Bacterial Biotransformation value belongs to CC(=O)O[C@]1(C(C)=O)CC[C@H]2[C@@H]3C=C(C)C4=CC(=O)CC[C@]4(C)[C@H]3CC[C@@]21C [MEGESTROL ACETATE] ?
Compound metabolized

Which Bacterial Biotransformation value belongs to CC(C)NCC(O)COc1ccc(CC(N)=O)cc1 (centres undefined) ?
Compound NOT metabolized

New cases:
Which Bacterial Biotransformation value belongs to CC(C)(C)NC(=O)[C@H]1CC[C@H]2[C@@H]3CC[C@H]4NC(=O)C=C[C@]4(C)[C@H]3CC[C@]12C [FINASTERIDE] ?
Compound metabolized

Which Bacterial Biotransformation value belongs to C[C@@H](c1ncncc1F)[C@](O)(Cn1cncn1)c1ccc(F)cc1F ?
Compound metabolized

Which Bacterial Biotransformation value belongs to C#C[C@]1(OC(C)=O)CC[C@H]2[C@@H]3CCC4=C[C@@H](OC(C)=O)CC[C@@H]4[C@H]3CC[C@@]21C [ETHYNODIOL DIACETATE] ?
Compound metabolized

Which Bacterial Biotransformation value belongs to COc1ccc(C(CN(C)C)C2(O)CCCCC2)cc1 (centres undefined) ?
Compound NOT metabolized

Which Bacterial Biotransformation value belongs to CN1CCC[C@@H]1CCO[C@](C)(c1ccccc1)c1ccc(Cl)cc1.O=C(O)/C=C/C(=O)O [CLEMASTINE FUMARATE] ?
Compound NOT metabolized

Which Bacterial Biotransformation value belongs to CC#C[C@]1(O)CC[C@H]2[C@@H]3CCC4=CC(=O)CCC4=C3[C@@H](c3ccc(N(C)C)cc3)C[C@@]21C ?
Compound metabolized

Which Bacterial Biotransformation value belongs to O=C1CN2Cc3c(ccc(Cl)c3Cl)N=C2N1 [ANAGRELIDE] ?
Compound metabolized

Which Bacterial Biotransformation value belongs to O=C(CCCN1CCC2(CC1)C(=O)NCN2c1ccccc1)c1ccc(F)cc1 ?
Compound metabolized

Which Bacterial Biotransformation value belongs to CC[C@H](C)C(=O)O[C@H]1CCC=C2C=C[C@H](C)[C@H](CC[C@@H]3C[C@@H](O)CC(=O)O3)[C@H]21 ?
Compound metabolized

Which Bacterial Biotransformation value belongs to CC(=O)Nc1ccc(OC(C)=O)cc1 [DIACETAMATE] ?
Compound metabolized

Which Bacterial Biotransformation value belongs to CC[C@@]1(O)C(=O)OCc2c1cc1n(c2=O)Cc2cc3c(CN(C)C)c(O)ccc3nc2-1 ?
Compound NOT metabolized

Which Bacterial Biotransformation value belongs to O=C([O-])C[C@H](O)C[C@H](O)/C=C/c1c(C2CC2)nc2ccccc2c1-c1ccc(F)cc1.O=C([O-])C[C@H](O)C[C@H](O)/C=C/c1c(C2CC2)nc2ccccc2c1-c1ccc(F)cc1.[Ca+2] ?
Compound metabolized

Which Bacterial Biotransformation value belongs to O=C1CC2(CCCC2)CC(=O)N1CCCCN1CCN(c2ncccn2)CC1 ?
Compound NOT metabolized

Which Bacterial Biotransformation value belongs to CC(N)C12CC3CC(CC(C3)C1)C2 (centres undefined) ?
Compound NOT metabolized

Which Bacterial Biotransformation value belongs to CC(C)c1nc(N(C)S(C)(=O)=O)nc(-c2ccc(F)cc2)c1/C=C/[C@@H](O)C[C@@H](O)CC(=O)[O-].CC(C)c1nc(N(C)S(C)(=O)=O)nc(-c2ccc(F)cc2)c1/C=C/[C@@H](O)C[C@@H](O)CC(=O)[O-].[Ca+2] ?
Compound metabolized

Which Bacterial Biotransformation value belongs to CCCCCNC(=N)N/N=C/c1c[nH]c2ccc(OC)cc12.O=C(O)/C=C\C(=O)O [TEGASEROD MALEATE] ?
Compound NOT metabolized

====

experiment: The drug is tested on WLS-073 corresponding to human gut metagenome with ENA study accession number: PRJEB37062 and ENA sample accession number: ERS12561749 for biotransformation under anaerobic condition. The drug concentrations were measured over 9 timepoints collected between 0 and 24 hours of incubation by liquid-chromatography-coupled mass spectrometry (LC–MS); conditions: 2 µM
propertyName: Bacterial Biotransformation

Some compounds with recorded Bacterial Biotransformation:
Which Bacterial Biotransformation value belongs to COc1ccc([C@@H]2Sc3ccccc3N(CCN(C)C)C(=O)[C@@H]2OC(C)=O)cc1 [DILTIAZEM] ?
Compound metabolized

Which Bacterial Biotransformation value belongs to CCS(=O)(=O)CCn1c([N+](=O)[O-])cnc1C [TINIDAZOLE] ?
Compound metabolized

Which Bacterial Biotransformation value belongs to COC(=O)[C@H](c1ccccc1Cl)N1CCc2sccc2C1.O=S(=O)(O)O [CLOPIDOGREL BISULFATE] ?
Compound metabolized

Which Bacterial Biotransformation value belongs to CN1CCN2c3ccccc3Cc3ccccc3C2C1 (centres undefined) [MIANSERIN] ?
Compound NOT metabolized

Which Bacterial Biotransformation value belongs to CC1Cc2ccccc2N1NC(=O)c1ccc(Cl)c(S(N)(=O)=O)c1 (centres undefined) [INDAPAMIDE] ?
Compound NOT metabolized

Which Bacterial Biotransformation value belongs to CC(C)C[C@H]1C(=O)N2CCC[C@H]2[C@]2(O)O[C@](NC(=O)[C@@H]3C=C4c5cccc6[nH]c(Br)c(c56)C[C@H]4N(C)C3)(C(C)C)C(=O)N12.CS(=O)(=O)O [BROMOCRIPTINE MESYLATE] ?
Compound metabolized

Which Bacterial Biotransformation value belongs to CC[C@@]1(O)C(=O)OCc2c1cc1n(c2=O)Cc2cc3c(CN(C)C)c(O)ccc3nc2-1 [TOPOTECAN] ?
Compound NOT metabolized

Which Bacterial Biotransformation value belongs to OCCN(CCO)c1nc(N2CCCCC2)c2nc(N(CCO)CCO)nc(N3CCCCC3)c2n1 [DIPYRIDAMOLE] ?
Compound NOT metabolized

New cases:
Which Bacterial Biotransformation value belongs to O=C(NC(Cc1cc(=O)[nH]c2ccccc12)C(=O)O)c1ccc(Cl)cc1 (centres undefined) [REBAMIPIDE] ?
Compound NOT metabolized

====

test: The drug is tested on Z-004 corresponding to metagenome with ENA study accession number: PRJEB37062 and ENA sample accession number: ERS12561804 for biotransformation under anaerobic condition. The drug concentrations were measured over 9 timepoints collected between 0 and 24 hours of incubation by liquid-chromatography-coupled mass spectrometry (LC–MS); details: 2 µM
propertyName: Bacterial Biotransformation

Which Bacterial Biotransformation value belongs to CN1CCN2c3ccccc3Cc3ccccc3C2C1 (stereo not drawn) ?
Compound NOT metabolized

Which Bacterial Biotransformation value belongs to CN1CCCCC1CCN1c2ccccc2Sc2ccc([S+](C)[O-])cc21.O=S(=O)(O)c1ccccc1 (stereo not drawn) [MESORIDAZINE BESYLATE] ?
Compound metabolized

Which Bacterial Biotransformation value belongs to Nc1nc(N)nc(-c2cc(Cl)ccc2Cl)n1.O=C(O)/C=C\C(=O)O [IRSOGLADINE MALEATE] ?
Compound NOT metabolized

Which Bacterial Biotransformation value belongs to CC(C)[C@H]1CC[C@H](C(=O)N[C@H](Cc2ccccc2)C(=O)O)CC1 [NATEGLINIDE] ?
Compound NOT metabolized

Which Bacterial Biotransformation value belongs to Nc1nnc(-c2cccc(Cl)c2Cl)c(N)n1 ?
Compound NOT metabolized

Which Bacterial Biotransformation value belongs to CCCC(C)(COC(N)=O)COC(=O)NC(C)C (stereo not drawn) ?
Compound metabolized

New cases:
Which Bacterial Biotransformation value belongs to CCCCCNC(=N)N/N=C/c1c[nH]c2ccc(OC)cc12.O=C(O)/C=C\C(=O)O [TEGASEROD MALEATE] ?
Compound NOT metabolized

Which Bacterial Biotransformation value belongs to Br.CN1CCC[C@@H]1Cc1c[nH]c2ccc(CCS(=O)(=O)c3ccccc3)cc12 [ELETRIPTAN HYDROBROMIDE] ?
Compound NOT metabolized
